# Tgt: Bcl-2 (Homo sapiens, UniProt P10415)
# Sequence (P10415 1-211 limits assumed): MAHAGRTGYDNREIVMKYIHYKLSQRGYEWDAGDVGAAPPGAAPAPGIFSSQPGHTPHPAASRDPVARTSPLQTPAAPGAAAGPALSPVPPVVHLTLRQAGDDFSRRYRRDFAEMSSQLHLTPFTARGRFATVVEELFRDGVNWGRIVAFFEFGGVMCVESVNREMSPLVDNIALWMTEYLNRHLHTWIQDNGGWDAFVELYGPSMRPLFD
pKi: −log10 of the molar value.
Metric name: pKi

Sample answers from the record:
Compound | Number
CC(C)CN(Cc1cc(Cl)cc(CN(CC(C)C)S(=O)(=O)c2cc(Cl)cc(Cl)c2O)c1)C(=O)c1ccc(SC(F)(F)F)cc1 [Example 71] | 6.33
O=C(N[C@H]1C[C@@H]1c1ccccc1)c1ccc(CN(Cc2ccc(F)cc2)S(=O)(=O)c2cc(Cl)cc(Cl)c2O)cc1 [Example 143] | 6.43
O=S(=O)(c1cc(Cl)cc(Cl)c1)N(Cc1ccc(F)cc1)Cc1cccc(CN(Cc2ccc(F)cc2)S(=O)(=O)c2cc(Cl)cc(Cl)c2O)[n+]1[O-] [Example 92] | 7.34

a = O=S(=O)(c1cc(Cl)cc(Cl)c1O)N(Cc1ccc(F)cc1)Cc1cccc(-c2ccc(Cl)cc2)c1 [Example 232]
b = CC(C)CN(Cc1cc(Cl)cc(CN(CC(C)C)S(=O)(=O)c2cc(Cl)cc(Cl)c2O)c1)S(=O)(=O)c1cccnc1 [Example 15]
Ask | Lower value of pKi belongs to which: a or b ? Pick one and reply with its label.
Reply | a
(a: 7.05, b: 8.00)
